- Test system: Acinetobacter baumanii/haemolyticus: Multidrug-resistant clinical isolate (AB-3167)
- EXPERIMENT SUMMARY: MIC determination (CLSI), AB-3167
- Type: cell-based
- ASSAY CONTEXT: Acinetobacter baumanii/haemolyticus multidrug-resistant clinical isolate AB-3167
RECORDED METRIC: AB-3167 MIC (µg/mL)
Respond numerically; units are µg/mL and should not be typed.

Prompt line: Consider the compound shown here: CC(=O)c1ccc(-c2ccc(CCC(C)(C(=O)NO)S(C)(=O)=O)cc2)cc1 (centres unmarked) [Example 108] What is its recorded AB-3167 MIC?
Response line: 32

Prompt line: Reported AB-3167 MIC, compound CC(CCc1ccc(-c2ccc(Cl)cc2)cc1)(C(=O)NO)S(C)(=O)=O (centres unmarked) [Example 44] : ____
Response line: 16

Prompt line: Fill in: AB-3167 MIC of CC(CCc1ccc(-c2cc(F)cc(F)c2)cc1)(C(=O)NO)S(C)(=O)=O (centres unmarked) [Example 97] is ___
Response line: 8

Prompt line: Entry under review: CC(C)(O)CCc1ccc(-c2ccc(CCC(C)(C(=O)NO)S(C)(=O)=O)cc2)cc1 (centres unmarked) [Example 158] . Reported AB-3167 MIC?
Response line: 32

====

Kindly supply the reported KP-3700 MIC values for the records listed here.
- Test system: Klebsiella pneumoniae: Ciprofloxacin-resistant isolate, ESBL, clinical isolate (KP-3700)
- EXPERIMENT SUMMARY: MIC determination (CLSI), KP-3700
- Type: cell-based
Answer in mg/L, number only, no unit symbol.

Prompt line: Give the reported KP-3700 MIC for CC(CCc1ccc(OCc2ccccc2)cc1)(C(=O)NO)S(C)(=O)=O (centres unmarked) [Example 132] (system: Klebsiella pneumoniae: Ciprofloxacin-resistant isolate, ESBL, clinical isolate (KP-3700)).
Response line: 16

Prompt line: // fetch Klebsiella pneumoniae: Ciprofloxacin-resistant isolate, ESBL, clinical isolate (KP-3700) KP-3700 MIC for CC(CCc1ccc(-c2ccc(CCO)cc2)cc1)(C(=O)NO)S(C)(=O)=O (centres unmarked) [Example 34]
Response line: 8

Prompt line: Recorded KP-3700 MIC for CC(CCc1ccc(-c2ccc(F)c(F)c2)cc1)(C(=O)NO)S(C)(=O)=O (racemic) [Example 75] with Klebsiella pneumoniae: Ciprofloxacin-resistant isolate, ESBL, clinical isolate (KP-3700), please?
Response line: 4

Prompt line: Item: COc1ccc(-c2ccc(CCC(C)(C(=O)NO)S(C)(=O)=O)cc2)c(C)n1 (racemic) [Example 86] Test system: Klebsiella pneumoniae: Ciprofloxacin-resistant isolate, ESBL, clinical isolate (KP-3700) Read-out: KP-3700 MIC Value: ?
Response line: 32

Prompt line: Look up KP-3700 MIC with Klebsiella pneumoniae: Ciprofloxacin-resistant isolate, ESBL, clinical isolate (KP-3700) for this compound: COc1cc(COc2ccc(CCC(C)(C(=O)NO)S(C)(=O)=O)cc2)cc(OC)c1 (centres unmarked) [Example 244]
Response line: 16

====

- System: Pseudomonas aeruginosa UI-18: Wild-type (PA-7)
- EXPERIMENT SUMMARY: MIC determination (CLSI), PA-7
- Type: cell-based
- ASSAY CONTEXT: Pseudomonas aeruginosa; Table 3; read-out: PA-7 MIC
RECORDED METRIC: MIC (µg/mL)
The reply should contain only the number, in µg/mL.

Prompt line: Item under review: CC(CCc1ccc(OCc2ccc(C(F)(F)F)cc2)cc1)(C(=O)NO)S(C)(=O)=O (stereo not shown) . Reported MIC?
Response line: 8

Prompt line: Please report the recorded MIC for CC(CCc1ccc(OCc2cccc(F)c2)cc1)(C(=O)NO)S(C)(=O)=O (stereo not shown) .
Response line: 8

Prompt line: Requested field: MIC. Item: CC(CCc1ccc(OCCC2CCCCC2)cc1)(C(=O)NO)S(C)(=O)=O (stereo not shown)
Response line: 16

Prompt line: Dear colleague, I am looking for the recorded MIC of the following compound: Cc1cccc(COc2ccc(CCC(C)(C(=O)NO)S(C)(=O)=O)cc2)c1F (stereo not shown)
Response line: 2

====

- Test system: Klebsiella pneumoniae: Ciprofloxacin-resistant isolate, ESBL, clinical isolate (KP-3700)
- EXPERIMENT SUMMARY: MIC determination (CLSI), KP-3700
- Format: cell-based
RECORDED METRIC: KP-3700 MIC (µg/mL)
Give the quantity in µg/mL, number only.

Prompt line: Any idea what KP-3700 MIC was measured for CC(=O)c1ccc(-c2ccc(CCC(C)(C(=O)NO)S(C)(=O)=O)cc2)cc1O (centres unmarked) ?
Response line: 8

Prompt line: What value of measured KP-3700 MIC is listed for CSc1ccc(-c2ccc(CCC(C)(C(=O)NO)S(C)(=O)=O)cn2)cc1 (centres unmarked) ?
Response line: 4

Prompt line: What does the record list as KP-3700 MIC for CC(CCc1ccc(OCc2c(F)cccc2Cl)cc1)(C(=O)NO)S(C)(=O)=O (centres unmarked) ?
Response line: 16

Prompt line: Look up KP-3700 MIC for this compound: Cc1cc(OCCO)ccc1-c1ccc(CCC(C)(C(=O)NO)S(C)(=O)=O)cc1 (centres unmarked)
Response line: 32

Prompt line: Returns the measured KP-3700 MIC for the input compound. Input: CC(CCc1ccc(-c2ccc(F)cc2)cc1)(C(=O)NO)S(C)(=O)=O (centres unmarked)
Response line: 4

Prompt line: Data request, read-out KP-3700 MIC, for CC(CCc1ccc(Oc2ccccc2)cc1)(C(=O)NO)S(C)(=O)=O (centres unmarked)
Response line: 32

Prompt line: Any idea what its KP-3700 MIC is? The compound is Cc1cc(-c2ccc(CCC(C)(C(=O)NO)S(C)(=O)=O)cc2)ccc1O (centres unmarked)
Response line: 32

Prompt line: Which measured KP-3700 MIC value corresponds to CC(CCc1ccc(-c2ccc(Cl)cc2)cc1)(C(=O)NO)S(C)(=O)=O (centres unmarked) ?
Response line: 1

Prompt line: Could you tell me which KP-3700 MIC is on file for CC(CCc1ccc(Sc2ccccc2)cc1)(C(=O)NO)S(C)(=O)=O (centres unmarked) ?
Response line: 32

====

- System: Acinetobacter baumanii/haemolyticus: Multidrug-resistant clinical isolate (AB-3167)
- EXPERIMENT SUMMARY: MIC determination (CLSI), AB-3167
- Assay type: cell-based
- ASSAY CONTEXT: Acinetobacter baumanii/haemolyticus multidrug-resistant clinical isolate AB-3167
- Description: The in vitro antibacterial activity of compounds described in the Examples was evaluated by minimum inhibitory concentration (MIC) testing according to Clinical and Laboratory Standards Institute (CLSI, formerly NCCLS) guidelines. See: Clinical and Laboratory Standards Institute. Methods for Dilution Antimicrobial Susceptibility Tests for Bacteria that Grow Aerobically; Approved Standard-Seventh Edition. CLSI document M7-A7 [ISBN 1-56238-587-9]. […]
RECORDED METRIC: AB-3167 MIC

# example entries with known answers
[
  {
    "COMPOUND": "COc1ccc(-c2ccc(CCC(C)(C(=O)NO)S(C)(=O)=O)cc2)c(C)n1 (racemic)",
    "TEST SYSTEM": "Acinetobacter baumanii/haemolyticus: Multidrug-resistant clinical isolate (AB-3167)",
    "AB-3167 MIC": "≧64 mg/L"
  },
  {
    "COMPOUND": "CS(=O)(=O)C(CCc1ccc(-c2ccc(C#N)cc2)cc1)C(=O)NO (centres unmarked)",
    "TEST SYSTEM": "Acinetobacter baumanii/haemolyticus: Multidrug-resistant clinical isolate (AB-3167)",
    "AB-3167 MIC": "≧64 mg/L"
  },
  {
    "COMPOUND": "Cc1cc(O)ccc1-c1ccc(CCC(C)(C(=O)NO)S(C)(=O)=O)cc1 (centres unmarked)",
    "TEST SYSTEM": "Acinetobacter baumanii/haemolyticus: Multidrug-resistant clinical isolate (AB-3167)",
    "AB-3167 MIC": "≧64 mg/L"
  },
  {
    "COMPOUND": "COc1ccc(-c2ccc(CCC(C)(C(=O)NO)S(C)(=O)=O)cc2)c(OC)c1 (racemic)",
    "TEST SYSTEM": "Acinetobacter baumanii/haemolyticus: Multidrug-resistant clinical isolate (AB-3167)",
    "AB-3167 MIC": "32 µg/mL"
  }
]

Prompt line: Hi! What's the reported AB-3167 MIC for CC(CCc1ccc(-c2ccc(N3CCN(S(C)(=O)=O)CC3)cc2)cc1)(C(=O)NO)S(C)(=O)=O (centres unmarked) on Acinetobacter baumanii/haemolyticus: Multidrug-resistant clinical isolate (AB-3167)?
Response line: ≧64 mg/L

Prompt line: Which measured AB-3167 MIC belongs to COc1ccc(CCC(C)(C(=O)NO)S(C)(=O)=O)cc1 (centres unmarked) , tested on Acinetobacter baumanii/haemolyticus: Multidrug-resistant clinical isolate (AB-3167)?
Response line: ≧64 mg/L

Prompt line: Form field: AB-3167 MIC recorded for COc1ccc(-c2ccc(CCC(C)(C(=O)NO)S(C)(=O)=O)cn2)cc1 (centres unmarked) with Acinetobacter baumanii/haemolyticus: Multidrug-resistant clinical isolate (AB-3167) (enter value)
Response line: ≧64 mg/L

Prompt line: Find the measured AB-3167 MIC: item CC(CCc1ccc(-c2cc(F)ccc2F)cc1)(C(=O)NO)S(C)(=O)=O (centres unmarked) , target or system Acinetobacter baumanii/haemolyticus: Multidrug-resistant clinical isolate (AB-3167).
Response line: 16 µg/mL

Prompt line: Form: Entry = CC(CCc1ccc(-c2cccc(O)c2F)cc1)(C(=O)NO)S(C)(=O)=O (centres unmarked) | System = Acinetobacter baumanii/haemolyticus: Multidrug-resistant clinical isolate (AB-3167) | AB-3167 MIC = ____
Response line: ≧64 mg/L

Hey, just so you know, these numbers are from patent US8853258B2.
